Item-by-item account of pIC50
# EXPERIMENTAL TARGET: UniProt:P97612
# ASSAY METHOD TEXT: Inhibition of FAAH in rat brain homogenates pre-incubated for 10 mins before addition of [3H]anandamide and [3H]AEA substrates for 30 mins by liquid scintillation counting
# Format: tissue-based
# STATED CONDITIONS: read-out: IC50
Note on pIC50: it is the negative log10 of concentration, concentration in mol/L.

Please review the entries below; each comes with its answer.
* CC(C(=O)O)c1ccc2c3cc(Cl)ccc3n(C(=O)c3cccc(Cl)c3)c2c1 (racemic) | 4.70
* CC(C(=O)O)c1ccc2c3cc(Cl)ccc3n(C(=O)c3cocn3)c2c1 (racemic) | 4.07
* CC(C(=O)O)c1ccc2c3cc(Cl)ccc3n(Cc3ccc(C#N)cc3)c2c1 (racemic) | 4.48
* CC(C(=O)O)c1ccc2c3cc(Cl)ccc3n(C)c2c1 (racemic) | 4.81
* CC(C(=O)O)c1ccc2c3cc(Cl)ccc3n(C(=O)c3ccc(F)cc3)c2c1 (racemic) | 4.51

Using the record for CCCCCCCCNC(=O)n1c2ccc(Cl)cc2c2ccc(C(C)C(=O)O)cc21 (racemic) , report its pIC50. 4.57

Query (compound): CC(C(=O)O)c1ccc2c3cc(Cl)ccc3n(Cc3ccccc3)c2c1 (racemic) ; field requested: pIC50 4.63

I would be grateful if you could share the reported pIC50 for CC(C(=O)O)c1ccc2c3cc(Cl)ccc3n(Cc3ccc(Cl)cc3)c2c1 (racemic) . 4.99

###

Measured log10 IC50, listed per entry for reference.
# EXPERIMENTAL TARGET: Fatty-acid amide hydrolase 1 (Rattus norvegicus, UniProt P97612)
# Sequence (P97612 whole entry): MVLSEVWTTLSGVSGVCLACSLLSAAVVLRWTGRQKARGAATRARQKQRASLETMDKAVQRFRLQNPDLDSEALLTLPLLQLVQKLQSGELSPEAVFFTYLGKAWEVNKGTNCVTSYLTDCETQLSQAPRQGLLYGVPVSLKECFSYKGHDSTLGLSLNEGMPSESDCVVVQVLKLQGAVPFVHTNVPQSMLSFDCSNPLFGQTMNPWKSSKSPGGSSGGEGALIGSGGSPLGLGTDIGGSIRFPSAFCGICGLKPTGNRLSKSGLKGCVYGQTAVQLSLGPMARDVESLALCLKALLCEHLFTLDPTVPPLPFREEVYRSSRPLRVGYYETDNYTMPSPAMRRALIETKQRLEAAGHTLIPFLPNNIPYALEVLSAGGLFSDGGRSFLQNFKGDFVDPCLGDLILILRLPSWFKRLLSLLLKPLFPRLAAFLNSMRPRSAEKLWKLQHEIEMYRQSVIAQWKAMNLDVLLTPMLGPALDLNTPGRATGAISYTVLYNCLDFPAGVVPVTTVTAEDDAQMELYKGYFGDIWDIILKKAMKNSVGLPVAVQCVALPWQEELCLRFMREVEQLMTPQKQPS
# ASSAY METHOD TEXT: Inhibition of FAAH in rat brain homogenates pre-incubated for 10 mins before addition of [3H]anandamide and [3H]AEA substrates for 30 mins by liquid scintillation counting
# Assay type: tissue-based
# STATED CONDITIONS: read-out: IC50
# log10 transformed; quantity=IC50; unit=µM

The examples below pair each entry with its known result.
- CC(C(=O)O)c1ccc2c3cc(Cl)ccc3n(C(=O)c3ccc(Cl)cc3)c2c1 (racemic): 1.34
- CC(C(=O)O)c1ccc2c3cc(Cl)ccc3n(C(=O)c3ccccc3)c2c1 (racemic): 1.40

Name the reported log10 IC50 value associated with the compound CC(C(=O)O)c1ccc2c(c1)[nH]c1ccccc12 (racemic) 0.66

// log10 IC50 lookup, key: C[C@@H](C(=O)O)c1ccc2c3cc(Cl)ccc3n(C(=O)c3cocn3)c2c1 1.73

Looking for the measured log10 IC50 of COc1ccc(Cn2c3ccc(Cl)cc3c3ccc(C(C)C(=O)O)cc32)cc1 (racemic) , can you help? 0.92

Entry under review: COC(=O)C(C)c1ccc2c(c1)[nH]c1ccc(Cl)cc12 (racemic) . Reported log10 IC50? 1.34

State the recorded log10 IC50 for this entry: CCCCCCNC(=O)n1c2ccc(Cl)cc2c2ccc(C(C)C(=O)O)cc21 (racemic) 0.51

log10 IC50 for CC(C(=O)O)c1ccc2c3cc(Cl)ccc3n(C(=O)Nc3ccc(Cl)cc3)c2c1 (racemic) ? 2.01

Fill blank: measured log10 IC50 of the compound CC(C(=O)O)c1ccc2c3cc(Cl)ccc3n(S(=O)(=O)c3ccc(Cl)cc3)c2c1 (racemic) is ____. 0.68

Would you kindly share the measured log10 IC50 for CC(C(=O)O)c1ccc2c3cc(Cl)ccc3n(C(=O)c3ccccc3Cl)c2c1 (racemic) ? 1.78
